Data origin, for the record: the supplement of paper PMC9170038

Below: a set of entries, each annotated with reported apparent KD of MS2 coat protein.
Test system: MS2 coat protein
Protocol description: apparent KD of MS2 coat protein; higher = weaker reporter binding
Assay setup: Eterna round: R107; input ligand: none
// note: answer is a bare numeric in nM

What value of apparent KD of MS2 coat protein has been reported for the following sequence? ACCGCAUCCGUAUAGGAUGCGGGCCAUGAAGGAGCGUGGGAAACCACAGGUAGGUCGCAUGGGUUACAUGAGGAUCACCCAUGUG [Jaws] 166

Same question, GGGUGGUAGGCGGCCGCCACUGAUUUUCAUUUAUAGAUGACAUGAGGAUCACCCAUGUUUAUGUGCAGGACCGGGCCUGCUGUGG [aaaT] this time 68

Same question, ACCUGUACGAAAAGUGCAGGACAUGGUAAACGAGGACCGGUACGGCCGCCACUCGAAUAACAAGUGGAUCACCCUUGUAACCAUG [TrypAS 5 #AlternativeMS2 #Zipper #StaticStem] this time 223
